Where these numbers come from: the supplement of paper PMC6755084

Quick reference for fraction ligated among some variants
B1: minF1; the commonest letter at each place (parent)
chain: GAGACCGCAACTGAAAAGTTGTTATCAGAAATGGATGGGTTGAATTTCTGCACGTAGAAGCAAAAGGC

Variants of: B1
assay-details: fraction ligated after 30 min (ligated reads / total reads); higher = more ligase activity
stated-conditions: with F1*subA RNA substrate (template-directed ligation), 42 °C
Answer as a number with no unit attached.

>>> data_value("A27C T32A")
0.0275

[ask] What fraction ligated value was documented for this variant, C26A A44T ?
[reply] 0.0723

[ask] Next variant: T32A G34C
[reply] 0.0031

[ask] Next variant: C26T A27T
[reply] 0.816

[ask] Next variant: T25G A29G
[reply] 0.0196

[ask] Next variant: A35T A44T
[reply] 0.00912

[ask] Next variant: G28A A29G
[reply] 0.835

[ask] Next variant: G42C A43G A44G
[reply] 0.00392

[ask] Next variant: C26G G33T
[reply] 0.0124

[ask] Next variant: T23A A27G
[reply] 0.234

[ask] Next variant: C26G A29T
[reply] 0.0347
